target: T1, GST-human NOGO-A56 (human, UniProt P08515 1-218 = GST); assay: SPR (Biacore 3000), GST-human NOGO-A56 on CM5, antibody as analyte; single experiment
T1 construct: GST-tagged fusion expressed in E. coli BL21 and purified on glutathione-sepharose; coated on ELISA plates or amine-coupled to a CM5 chip; also called hNOGO; recombinant human NOGO
T1 sequence (P08515 1-218, tags or fused parts left off): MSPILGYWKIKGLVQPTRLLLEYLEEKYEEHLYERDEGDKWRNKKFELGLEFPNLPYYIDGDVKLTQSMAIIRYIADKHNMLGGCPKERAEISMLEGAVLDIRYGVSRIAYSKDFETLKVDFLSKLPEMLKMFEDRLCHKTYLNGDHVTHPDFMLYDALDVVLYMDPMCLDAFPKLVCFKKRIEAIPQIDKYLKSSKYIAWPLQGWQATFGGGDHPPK
Measurement type: koff

INSERT INTO assay_data (binder, measurement) VALUES
  ('H10L13 (antibody, V domains shown) VH: QVQLVQSGAEVKKPGASVKLSCKASGYTFTSYWMHWVKQAPGQGLEWIGNINPSNGGTNYNEKFKSRATLTVDKSTSTAYMELSSLRSEDTAVYYCELGQGYWGQGTLVTVSS VL: DIVMTQSPLSLPVTLGQPASISCRSSKSLLYKDGKTYLNWFQQRPGQSPQLLIYLMSTRASGVPDRFSGGGSGTDFTLKISRVEAEDVGVYYCQQLVEYPLTFGQGTKLEIK', '0.0212 s⁻¹'),
  ('H6L13 (antibody, human IgG1, kappa, V domains shown, Humanised 2A10; Human gamma1 mutated constant region and human kappa; also called H6L13 FL) VH: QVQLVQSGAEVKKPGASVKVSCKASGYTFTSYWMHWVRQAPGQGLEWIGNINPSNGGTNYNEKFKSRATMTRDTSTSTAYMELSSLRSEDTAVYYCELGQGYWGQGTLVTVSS VL: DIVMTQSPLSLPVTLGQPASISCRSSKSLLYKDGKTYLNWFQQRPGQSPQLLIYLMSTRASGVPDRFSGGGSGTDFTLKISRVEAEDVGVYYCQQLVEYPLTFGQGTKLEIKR', '0.0233 s⁻¹'),
  ('H700L11 (antibody, human IgG1, kappa, V domains shown) VH: QVQLVQSGAEVKKPGASVKVSCKASGYTFTSYWMHWVRQAPGQGLEWIGNINPSNGGTNYNEKFKSRATLTVDKSTSTAYMELSSLRSEDTAVYYCELGQGYWGQGTLVTVSS VL: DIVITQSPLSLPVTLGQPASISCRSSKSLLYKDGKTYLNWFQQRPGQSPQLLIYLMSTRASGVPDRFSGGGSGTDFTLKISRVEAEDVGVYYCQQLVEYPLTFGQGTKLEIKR', '0.0233 s⁻¹'),
  ('H5L6 (antibody, human IgG1, kappa, V domains shown) VH: QVQLVQSGAEVKKPGASVKVSCKASGYTFTSYWMHWVRQAPGQGLEWMGNINPSNGGTNYNEKFKSRVTMTRDTSTSTAYMELSSLRSEDTAVYYCELGQGYWGQGTLVTVSS VL: DIVMTQSPLSLPVTPGEPASISCRSSKSLLYKDGKTYLNWFLQRPGQSPQLLIYLMSTRASGVPDRFSGSGSGTDFTLKISRVEAEDVGVYYCQQLVEYPLTFGGGTKVEIKR', '0.047 s⁻¹'),
  ('H6L6 (antibody, human IgG1, kappa, V domains shown) VH: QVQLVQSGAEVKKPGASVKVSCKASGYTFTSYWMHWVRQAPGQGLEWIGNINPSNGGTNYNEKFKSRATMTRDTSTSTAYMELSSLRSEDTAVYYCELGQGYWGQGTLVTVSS VL: DIVMTQSPLSLPVTPGEPASISCRSSKSLLYKDGKTYLNWFLQRPGQSPQLLIYLMSTRASGVPDRFSGSGSGTDFTLKISRVEAEDVGVYYCQQLVEYPLTFGGGTKVEIKR', '0.0254 s⁻¹');

FYI, the data here is from patent US20060029603A1.
